Ref: patent US20240066155A1

TEST: Lipophilicity, n-octanol/PBS (pH 7.4) distribution
Format: physicochemical
CONDITION: n-octanol/PBS pH 7.4, 177Lu-labeled, n=6
MEASURED ENDPOINT: logD7.4
Answers are plain numbers.

Reference set (2 entries):
CC(C)(C)[Si](F)(c1ccc(C(=O)NC[C@@H](NC(=O)CC[C@H](C(=O)O)N2CCN(CC(=O)[O-])CCN(CC(=O)[O-])CCN(CC(=O)[O-])CC2)C(=O)N[C@H](CCCCNC(=O)CCC(=O)NCCC[C@@H](NC(=O)CC[C@H](NC(=O)N[C@@H](CCC(=O)O)C(=O)O)C(=O)O)C(=O)O)C(=O)O)cc1)C(C)(C)C.[Lu+3] [[^177Lu, ^19F]rhPSMA-7.1] = −4.27
O=C([O-])CN1CCN(CC(=O)[O-])CCN(C(CCC(=O)N[C@H](Cc2ccc(O)c(I)c2)C(=O)N[C@H](Cc2ccccc2)C(=O)N[C@H](CCCCNC(=O)CCCCCCC(=O)NCCCC[C@H](NC(=O)N[C@@H](CCC(=O)O)C(=O)O)C(=O)O)C(=O)O)C(=O)O)CCN(CC(=O)[O-])CC1.[Lu+3] (stereo partly drawn) [[^177Lu]PSMA I&T] = −4.1

Now look at this one.
Any idea what its logD7.4 is? The molecule is CC(C)(C)[Si](F)(c1ccc(C(=O)NC[C@H](NC(=O)CC[C@@H](C(=O)O)N2CCN(CC(=O)[O-])CCN(CC(=O)[O-])CCN(CC(=O)[O-])CC2)C(=O)N[C@H](CCCCNC(=O)CCC(=O)NCCC[C@@H](NC(=O)CC[C@H](NC(=O)N[C@@H](CCC(=O)O)C(=O)O)C(=O)O)C(=O)O)C(=O)O)cc1)C(C)(C)C.[Lu+3] [[^177Lu, ^19F]rhPSMA-7.4] −4.10
